run-description: The drug is tested on Clostridium ramosum strain: DSM1402 for biotransformation. The drug concentrations were measured before and after a 12-h incubation by liquid-chromatography-coupled mass spectrometry (LC–MS)
measurement-parameters: thomasclavelia ramosa, 2 µM
test-readout: Bacterial Biotransformation

molecule=CC(C)(C#N)c1cc(Cn2cncn2)cc(C(C)(C)C#N)c1 test_readout="Bacterial Biotransformation" result="Compound NOT metabolized"
molecule=CC(C)c1nc(N(C)S(C)(=O)=O)nc(-c2ccc(F)cc2)c1/C=C/[C@@H](O)C[C@@H](O)CC(=O)[O-].CC(C)c1nc(N(C)S(C)(=O)=O)nc(-c2ccc(F)cc2)c1/C=C/[C@@H](O)C[C@@H](O)CC(=O)[O-].[Ca+2] test_readout="Bacterial Biotransformation" result="Compound NOT metabolized"
molecule="CC(NC(C)(C)C)C(=O)c1cccc(Cl)c1 (centres undefined)" test_readout="Bacterial Biotransformation" result="Compound NOT metabolized"

###

measurement-parameters: bacteroides intestinalis, 12 h, 2 µM
Description: The drug is tested on Bacteroides intestinalis strain: DSM17393 for biotransformation. The drug concentrations were measured before and after a 12-h incubation by liquid-chromatography-coupled mass spectrometry (LC–MS)
test-readout: Bacterial Biotransformation

Example results:
compound="O=C1N=C([O-])NC1(c1ccccc1)c1ccccc1.[Na+] [PHENYTOIN SODIUM]" test_readout="Bacterial Biotransformation" result="Compound NOT metabolized"
compound=Nc1nc2ccc(OC(F)(F)F)cc2s1 test_readout="Bacterial Biotransformation" result="Compound NOT metabolized"
compound=Cc1nc2n(c(=O)c1CCN1CCC(c3noc4cc(F)ccc34)CC1)CCCC2 test_readout="Bacterial Biotransformation" result="Compound NOT metabolized"
compound=CCN(C(C)=O)c1cccc(-c2ccnc3c(C#N)cnn23)c1 test_readout="Bacterial Biotransformation" result="Compound NOT metabolized"
compound="CC(CCc1ccccc1)NCC(O)c1ccc(O)c(C(N)=O)c1 (stereo not given)" test_readout="Bacterial Biotransformation" result="Compound NOT metabolized"
compound="O=P(O)(O)O.c1ccc(CN(CC2=NCCN2)c2ccccc2)cc1 [ANTAZOLINE PHOSPHATE]" test_readout="Bacterial Biotransformation" result="Compound NOT metabolized"

We now examine a further compound.
-- ask Which Bacterial Biotransformation value belongs to CCN1CCCC1CNC(=O)c1cc(S(=O)(=O)CC)c(N)cc1OC (stereo not given) [AMISULPRIDE] ?
-- reply Compound NOT metabolized

###

run-description: The drug is tested on Subdoligranulum variabile strain: DSM15176 for biotransformation. The drug concentrations were measured before and after a 12-h incubation by liquid-chromatography-coupled mass spectrometry (LC–MS)
measurement-parameters: 2 µM
test-readout: Bacterial Biotransformation

Example results:
molecule="Br.COc1ccc2c(c1)[C@]13CCCC[C@@H]1[C@H](C2)N(C)CC3.O [DEXTROMETHORPHAN HYDROBROMIDE]" result="Compound NOT metabolized"
molecule="OCCN1CCN(CCCN2c3ccccc3Sc3ccc(C(F)(F)F)cc32)CC1 [FLUPHENAZINE]" result="Compound NOT metabolized"
molecule="Cc1cc2c(s1)Nc1ccccc1N=C2N1CCN(C)CC1 [OLANZAPINE]" result="Compound NOT metabolized"
molecule="CCC(=O)NCC[C@@H]1CCc2ccc3c(c21)CCO3 [RAMELTEON]" result="Compound NOT metabolized"
molecule="CN[C@H]1CC[C@@H](c2ccc(Cl)c(Cl)c2)c2ccccc21 [SERTRALINE]" result="Compound NOT metabolized"
molecule="C[N+]12CCC(CC1)C(OC(=O)C(O)(c1ccccc1)c1ccccc1)C2.[Br-] (configuration not stated) [CLIDINIUM BROMIDE]" result="Compound NOT metabolized"
molecule="COC(=O)C(c1ccccc1)C1CCCCN1 (configuration not stated) [METHYLPHENIDATE]" result="Compound NOT metabolized"
molecule="C=CC[C@@H]1/C=C(\\C)C[C@H](C)C[C@H](OC)[C@H]2O[C@@](O)(C(=O)C(=O)N3CCCC[C@H]3C(=O)O[C@H](/C(C)=C/[C@@H]3CC[C@@H](O)[C@H](OC)C3)[C@H](C)[C@@H](O)CC1=O)[C@H](C)C[C@@H]2OC.O [TACROLIMUS]" result="Compound metabolized"
molecule="Nc1c2c(nc3ccccc13)CCCC2 [TACRINE]" result="Compound NOT metabolized"
molecule="CCCC(=O)Nc1ccc(OCC(O)CNC(C)C)c(C(C)=O)c1 (configuration not stated) [ACEBUTOLOL]" result="Compound NOT metabolized"

-- ask Which Bacterial Biotransformation value belongs to COc1ccccc1N1CCN(CC(O)COc2cccc3ccccc23)CC1 (configuration not stated) [NAFTOPIDIL] ?
-- reply Compound NOT metabolized

-- ask Which Bacterial Biotransformation value belongs to N#Cc1ccc2[nH]cc(CCCCN3CCN(c4ccc5oc(C(N)=O)cc5c4)CC3)c2c1 [VILAZODONE] ?
-- reply Compound NOT metabolized

-- ask Which Bacterial Biotransformation value belongs to CC(C)(C)NCC(O)c1cc(Cl)c(N)c(Cl)c1 (configuration not stated) [CLENBUTEROL] ?
-- reply Compound NOT metabolized

-- ask Which Bacterial Biotransformation value belongs to CN(C)C(=O)Oc1cc(OC(=O)N(C)C)cc(C(O)CNC(C)(C)C)c1 (configuration not stated) [BAMBUTEROL] ?
-- reply Compound NOT metabolized

-- ask Which Bacterial Biotransformation value belongs to CC(=O)O[C@]1(C(C)=O)CC[C@H]2[C@@H]3C=C(C)C4=CC(=O)CC[C@]4(C)[C@H]3CC[C@@]21C [MEGESTROL ACETATE] ?
-- reply Compound NOT metabolized

-- ask Which Bacterial Biotransformation value belongs to CCCCCNC(=N)N/N=C/c1c[nH]c2ccc(OC)cc12.O=C(O)/C=C\C(=O)O [TEGASEROD MALEATE] ?
-- reply Compound NOT metabolized

-- ask Which Bacterial Biotransformation value belongs to N[C@@H](Cc1ccc(N(CCCl)CCCl)cc1)C(=O)O ?
-- reply Compound metabolized

-- ask Which Bacterial Biotransformation value belongs to Cc1nc(Nc2ncc(C(=O)Nc3c(C)cccc3Cl)s2)cc(N2CCN(CCO)CC2)n1.O [DASATINIB] ?
-- reply Compound metabolized

Cited source for all entries: ChEMBL document CHEMBL5303573
